From: PubChem BioAssay (NCI)

Test system: HCT-116 colon
method description: NCI tumour cell line growth inhibition, 48 h
Recorded TGI for the following compounds

Example entries and their recorded answers appear below.
compound: CC1=NN(C(=O)c2ccccc2O)C(=O)/C1=C/c1ccc(O)cc1
target entity: HCT-116 colon
TGI: > 100 µM

compound: CSc1nnc(CCC(=O)Nc2c(C)cccc2C)o1
target entity: HCT-116 colon
TGI: > 100 µM

compound: C=C[C@@H](C)[C@H](NS(=O)(=O)c1ccc(C)cc1)C(=O)OCC
target entity: HCT-116 colon
TGI: > 100 µM

compound: O=C(O)CC[C@H](NC(=O)c1ccc(-n2nc3ccc(O)cc3nc2=O)cc1)C(=O)O
target entity: HCT-116 colon
TGI: > 100 µM

compound: COc1cc(OC)c(C/C=C/c2ccccc2)cc1O
target entity: HCT-116 colon
TGI: 30 µM

Quick check: TGI on HCT-116 colon, item CSC1=C(N)C(=O)c2[nH]cc(CO)c2C1=N ?
0.666 µM

Quick check: TGI on HCT-116 colon, item COc1cc(OC)c2nc(C)c3c(c2c1)SCC3 ?
48.5 µM

Quick check: TGI on HCT-116 colon, item CCOC(C[C@H](O[Si](C)(C)C(C)(C)C)[C@H]1COC(=S)S1)OCC ?
> 100 µM

Quick check: TGI on HCT-116 colon, item COC(=O)C1CCC(=S)N1C(=O)c1ccccc1 (centres undefined) ?
> 100 µM

Quick check: TGI on HCT-116 colon, item Cc1cc(-c2nc3cc(F)ccc3s2)ccc1NC(=O)[C@@H](N)CCCCN ?
7.67 µM

Quick check: TGI on HCT-116 colon, item CC1(C)CC(O)C(C)(C)[C@@H](O)C1 (some centres undefined) ?
> 100 µM

Quick check: TGI on HCT-116 colon, item Cc1c(C(=O)Nc2ccccc2)sc2ncn(Cc3cccc(Cl)c3)c(=O)c12 ?
> 100 µM

Quick check: TGI on HCT-116 colon, item CC(NC(=O)C(NC(=O)CNC(=O)OC(C)(C)C)C(C)C)C(=O)Oc1c(Cl)c(Cl)c(Cl)c(Cl)c1Cl (centres undefined) ?
31.2 µM

Quick check: TGI on HCT-116 colon, item Cc1ccc2c(=O)cc(-c3ccc(Cl)s3)[nH]c2n1 ?
> 55.3 µM

Quick check: TGI on HCT-116 colon, item NNC(=O)C1CCC(=O)N1S(=O)(=O)c1ccccc1 (centres undefined) ?
> 100 µM

Quick check: TGI on HCT-116 colon, item N#C/C(=C\c1ccsc1)c1nc2ccccc2o1 ?
> 100 µM

Quick check: TGI on HCT-116 colon, item Cc1csc(NC23CC4CC(CC(C4)C2)C3)[n+]1C(P(=O)([O-])O)P(=O)(O)O (centres undefined) ?
> 100 µM

Quick check: TGI on HCT-116 colon, item COc1c(O)c2c3c(cc(C)cc3c1C(C)C)OC2 ?
> 100 µM

Quick check: TGI on HCT-116 colon, item CC1C(=O)N(c2ccccc2)NC12CCCc1ccccc12 (centres undefined) ?
> 100 µM

Quick check: TGI on HCT-116 colon, item OC1(C23CC4CC(CC(C4)C2)C3)CSCC1(O)C12CC3CC(CC(C3)C1)C2 (centres undefined) ?
> 100 µM

Quick check: TGI on HCT-116 colon, item CC(C)CNc1nc2ncnc(N)c2[nH]1 ?
> 100 µM

Quick check: TGI on HCT-116 colon, item C=C1C(O)C2C(=C(CC)C13CC3)C(=O)C(C)(C)C2OC (centres undefined) ?
> 100 µM

Quick check: TGI on HCT-116 colon, item CC1=C(C(=O)Nc2ccc3n[nH]c(C)c3c2)C(c2ccc(C(F)(F)F)cc2)CC(=O)N1 (centres undefined) ?
> 25 µM

Quick check: TGI on HCT-116 colon, item C/C(O)=C(/C=N/C(=S)Nc1ccc(S(N)(=O)=O)cc1)C(=O)Nc1ccccc1C ?
> 100 µM

Quick check: TGI on HCT-116 colon, item CC1(C)C2CCC13C(=O)C1OC3(C2)C2C(=O)c3ccccc3C(=O)C12 (centres undefined) ?
> 100 µM

Quick check: TGI on HCT-116 colon, item C[C@H](NC(=O)C(Cc1ccccc1)(Cc1ccc(O)cn1)NC(=O)c1ccccc1)c1ccccc1 (some centres undefined) ?
28.7 µM

====

Tested on: NCI-H460 lung
method description: NCI tumour cell line growth inhibition, 48 h
Recorded TGI for the following compounds

Example entries and their recorded answers appear below.
compound: O=C1NC(Nc2ccccc2)=NC(C(F)(F)F)(C(F)(F)F)N1
TGI: > 100 µM

compound: CN1CCN(C(=O)C(C)(C)c2ccc(C(=O)Nc3cn4cc(-c5ccncc5)ccc4n3)cc2)CC1
TGI: 34.3 µM

Fill in: TGI of CC(C)(C)C(=O)OCC1C(=O)OCC1C(=O)N1Cc2cc3ccccc3nc2C1 (centres undefined) is ___
5.52 µM

Fill in: TGI of c1cncc(C2N3CCCCC3[C@@H]3c4[nH]c5ccccc5c4CCN23)c1 (some centres undefined) is ___
> 100 µM

Fill in: TGI of Cc1cc(S(=O)(=O)N/C(=C(\C#N)C(=O)c2ccc(Cl)cc2)[n+]2ccc(N(C)C)cc2)c([S-])cc1Cl is ___
> 100 µM

Fill in: TGI of COC(OC)[C@@H]1OC[C@H](n2cnc3c(N)ncnc32)[C@H]1O is ___
> 100 µM

Fill in: TGI of C/C(=N/NC(=S)N1CCCCC1)c1ccccc1O is ___
> 31.6 µM

Fill in: TGI of CCOc1cc2c(C(=O)CC)c(O)ccc2o1 is ___
> 100 µM

Fill in: TGI of COc1cc(OC)c(C/C=C/c2ccccc2)cc1O is ___
31 µM

Fill in: TGI of CCOP(=O)(/C=C\n1cc(C)c(=O)[nH]c1=O)OCC is ___
> 100 µM

Fill in: TGI of Nc1ccc(S(=O)(=O)c2ccc(NCN3C(=O)NC(=O)C(=O)C3=O)cc2)cc1 is ___
> 100 µM

Fill in: TGI of Cc1cc(-c2nc3cc(F)ccc3s2)ccc1NC(=O)[C@@H](N)CCCCN is ___
2.24 µM

Fill in: TGI of NC(=O)N/N=C1/CCC(O)CC1CC(=O)O (centres undefined) is ___
> 100 µM

Fill in: TGI of O=C(Nc1ccc(Br)cc1F)c1cc(I)ccc1O is ___
> 100 µM

====

System: M19-MEL melanoma
method description: NCI tumour cell line growth inhibition, 48 h
measurement type: TGI

Fill in: TGI of Cc1ccc(C(N)=O)cc1N=NN(C)C is ___
> 100 µM

====

Recorded TGI for the following compounds
Test system: A549 NSCLC
method description: NCI tumour cell line growth inhibition, 48 h

compound: O=C1c2cc3c(cc2[C@@H]2[C@H]1c1ccc([N+](=O)[O-])cc1C(=O)N2CCCBr)OCO3
target entity: A549 NSCLC
TGI: 0.0865 µM

Then this compound:
Fill in: TGI of O=C1C[C@@H](C(=O)OCc2ccccc2)NC(=O)C[C@@H](C(=O)OCc2ccccc2)NC(=O)C[C@@H](C(=O)OCc2ccccc2)N1 is ___
> 100 µM

====

Tested on: IGROV1 ovarian
method description: NCI tumour cell line growth inhibition, 48 h; in the data active = GI50 below about 0.43 µM; inactive = the rest
// one of active, inactive, no free text

The following compounds have reported results that may help.
compound: O=C(Nc1ccc(Br)cc1F)c1cc(I)ccc1O
assigned class: inactive

compound: Cn1ncnc1[C@H]1c2n[nH]c(=O)c3cc(F)cc(c23)N[C@@H]1c1ccc(F)cc1
assigned class: inactive

compound: CC(=O)[CH-]C(=O)c1ccccc1.CC(=O)[CH-]C(=O)c1ccccc1.CC[O-].CC[O-].[Hf+4]
assigned class: inactive

compound: COC1CC(O[C@H]2CC[C@@]3(C)[C@H](CC[C@@H]4[C@@H]3CC[C@]3(C)[C@@H](C5=CC(=O)OC5)[C@@H](OC(C)=O)C[C@]43O)C2)OC(C)C1O (stereo partly specified)
assigned class: active

compound: CC1=C(c2cccc(O)c2)[C@H](c2ccc(OCCN3CC(CF)C3)cc2)Oc2ccc(O)cc21
assigned class: inactive

Any idea what this test logged for CC1=C(C(=O)Nc2ccc3n[nH]c(C)c3c2)C(c2ccc(C(F)(F)F)cc2)CC(=O)N1 (stereo unspecified) ?
inactive

Any idea what this test logged for CCCCCCC[CH2][Sn]([CH2]CCCCCCC)([O]c1cccc2cccnc12)[O]c1cccc2cccnc12 ?
inactive

Any idea what this test logged for CN(C)CCN1C(=O)c2c(c3c4ccccc4n4c3c3c2c2ccccc2n3C2CC(O)C(O)C4(C)O2)C1=O (stereo unspecified) ?
inactive

Any idea what this test logged for COc1ccc(CCN2CC=Cn3c2nc2ccccc2c3=O)cc1 ?
active

Any idea what this test logged for Nc1ncnc2c1N=C(c1ccc3c(c1)OCO3)CC(c1ccc([N+](=O)[O-])cc1)N2 (stereo unspecified) ?
active

Any idea what this test logged for COc1ccc2c(c1)NC1=C(C(=O)OC1)C2c1cc(OC)c2c(c1)OCO2 (stereo unspecified) ?
active
